methodSummary: Drug level in human HT-29 cells expressing B-Raf V600E mutant xenografted nude mouse tumor at 50 mg/kg, po after 12 hrs
Format: ADME, organism-based, Neoplasm
Parameters: dose 50 mg/kg, route oral
appliedConditions: read-out: Drug uptake
quantityMeasured: concentration at 12 h (ng/g)
API: value field is a number in ng/g; no unit string.

// query Provide one value: measured concentration at 12 h of `C[C@@H](c1ccccc1)[C@@H](C(=O)Nc1ccc(I)cc1F)N1C(=O)N[C@H](c2ccc(OC[C@H](O)CO)cc2)C1=O`
// result 188

---

methodSummary: Plasma concentration in human HT-29 cells expressing B-Raf V600E mutant xenografted nude mouse at 100 mg/kg, po after 12 hrs
Format: ADME, organism-based
Set-up: dose 100 mg/kg, route oral
quantityMeasured: concentration at 12 h (ng/mL)
Write the value in ng/mL as a bare number.

// query Look up concentration at 12 h of `C[C@@H](c1ccccc1)[C@@H](C(=O)Nc1ccc(I)cc1F)N1C(=O)N[C@H](c2ccc(OC[C@H](O)CO)cc2)C1=O` and report it.
// result 195

---

methodSummary: Drug level in human HT-29 cells expressing B-Raf V600E mutant xenografted nude mouse tumor at 100 mg/kg, po after 12 hrs
Assay type: ADME, organism-based, Neoplasm
Set-up: dose 100 mg/kg, route oral
appliedConditions: read-out: Drug uptake
quantityMeasured: concentration at 12 h
Remember to put the unit after the number in your answer.

// query Supply concentration at 12 h value. Item: `C[C@@H](c1ccccc1)[C@@H](C(=O)Nc1ccc(I)cc1F)N1C(=O)N[C@H](c2ccc(OC[C@H](O)CO)cc2)C1=O`
// result 321 ng/g

---

methodSummary: Plasma concentration in human HT-29 cells expressing B-Raf V600E mutant xenografted nude mouse at 100 mg/kg, po after 8 hrs
Type: ADME, organism-based
Design: dose 100 mg/kg, route oral
quantityMeasured: concentration at 8 h
Enter the number, and then the unit.

// query # return recorded concentration at 8 h for entry `C[C@@H](c1ccccc1)[C@@H](C(=O)Nc1ccc(I)cc1F)N1C(=O)N[C@H](c2ccc(OC[C@H](O)CO)cc2)C1=O`
// result 741 ng/mL

---

methodSummary: Drug level in human LOX cells expressing B-Raf V600E mutant xenografted nude mouse tumor at 100 mg/kg, po after 4 hrs
Assay type: ADME, organism-based, Neoplasm
Parameters: dose 100 mg/kg, route oral
appliedConditions: read-out: Drug uptake
quantityMeasured: concentration at 4 h (ng/g)
Report the value in ng/g with no unit label.

// query Answer with reported concentration at 4 h of `C[C@@H](c1ccccc1)[C@@H](C(=O)Nc1ccc(I)cc1F)N1C(=O)N[C@H](c2ccc(OC[C@H](O)CO)cc2)C1=O`
// result 2630

---

methodSummary: Plasma concentration in human HT-29 cells expressing B-Raf V600E mutant xenografted nude mouse at 50 mg/kg, po after 4 hrs
Type: ADME, organism-based
Design: dose 50 mg/kg, route oral
quantityMeasured: concentration at 4 h
Answer as a quantity: numeral, then unit.

// query Tell me its concentration at 4 h given `C[C@@H](c1ccccc1)[C@@H](C(=O)Nc1ccc(I)cc1F)N1C(=O)N[C@H](c2ccc(OC[C@H](O)CO)cc2)C1=O` as the entry.
// result 4030 ng/mL

---

methodSummary: AUC (0 to 12 hrs) in human MIAPaCa2 cells expressing K-Ras G12C mutant xenografted nude mouse at 100 mg/kg, po bid
Type: ADME, organism-based, MIA PaCa-2
Set-up: time < 12 hr, dose 100 mg/kg, route oral
appliedConditions: in vivo
quantityMeasured: AUC at 12 h (ng·h/mL)
Respond numerically; units are ng·h/mL and should not be typed.

// query // fetch AUC at 12 h given entry `C[C@@H](c1ccccc1)[C@@H](C(=O)Nc1ccc(I)cc1F)N1C(=O)N[C@H](c2ccc(OC[C@H](O)CO)cc2)C1=O`
// result 32700

---

methodSummary: AUC (0 to 12 hrs) in human HT-29 cells expressing B-Raf V600E mutant xenografted nude mouse at 25 mg/kg, po bid
Format: ADME, organism-based
Design: time < 12 hr, dose 25 mg/kg, route oral
appliedConditions: in vivo
quantityMeasured: AUC at 12 h (ng·h/mL)
Hi! Could you send only the number? It should be in ng·h/mL, unit omitted.

// query Assign AUC at 12 h to the following record: `C[C@@H](c1ccccc1)[C@@H](C(=O)Nc1ccc(I)cc1F)N1C(=O)N[C@H](c2ccc(OC[C@H](O)CO)cc2)C1=O`
// result 3780

---

methodSummary: AUC (0 to 24 hrs) in human MIAPaCa2 cells expressing K-Ras G12C mutant xenografted nude mouse at 200 mg/kg, po qd
Type: ADME, organism-based, MIA PaCa-2
Parameters: time < 24 hr, dose 200 mg/kg, route oral
appliedConditions: in vivo
quantityMeasured: AUC at 24 h (ng·h/mL)
Entry rule: numbers only, all in ng·h/mL.

// query Return AUC at 24 h (reported value) for this compound: `C[C@@H](c1ccccc1)[C@@H](C(=O)Nc1ccc(I)cc1F)N1C(=O)N[C@H](c2ccc(OC[C@H](O)CO)cc2)C1=O`
// result 66200

---

methodSummary: AUC (0 to 12 hrs) in human HT-29 cells expressing B-Raf V600E mutant xenografted nude mouse at 50 mg/kg, po bid
Format: ADME, organism-based
Design: time < 12 hr, dose 50 mg/kg, route oral
appliedConditions: in vivo
quantityMeasured: AUC at 12 h (ng·h/mL)
Give your result in ng·h/mL as a bare value.

// query Please give the documented AUC at 12 h of `C[C@@H](c1ccccc1)[C@@H](C(=O)Nc1ccc(I)cc1F)N1C(=O)N[C@H](c2ccc(OC[C@H](O)CO)cc2)C1=O`
// result 7310

---

methodSummary: AUC (0 to 12 hrs) in human LOX cells expressing B-Raf V600E mutant xenografted nude mouse at 25 mg/kg, po bid
Type: ADME, organism-based
Set-up: time < 12 hr, dose 25 mg/kg, route oral
appliedConditions: in vivo
quantityMeasured: AUC at 12 h
Answer format reminder: number followed by unit.

// query Give the reported AUC at 12 h for this compound. `C[C@@H](c1ccccc1)[C@@H](C(=O)Nc1ccc(I)cc1F)N1C(=O)N[C@H](c2ccc(OC[C@H](O)CO)cc2)C1=O`
// result 10000 ng·h/mL

---

methodSummary: Cmax in human H460 cells expressing K-Ras Q61H mutant xenografted nude mouse at 100 mg/kg, po bid
Assay type: ADME, organism-based
Set-up: dose 100 mg/kg, route oral
appliedConditions: in vivo
quantityMeasured: Cmax (ng/mL)
Output spec: scalar in ng/mL, unitless text.

// query Name the recorded Cmax of the compound listed here: `C[C@@H](c1ccccc1)[C@@H](C(=O)Nc1ccc(I)cc1F)N1C(=O)N[C@H](c2ccc(OC[C@H](O)CO)cc2)C1=O`
// result 16900

---

methodSummary: Drug level in human LOX cells expressing B-Raf V600E mutant xenografted nude mouse tumor at 100 mg/kg, po after 1 hr
Assay type: ADME, organism-based, Neoplasm
Design: dose 100 mg/kg, route oral
appliedConditions: read-out: Drug uptake
quantityMeasured: concentration at 1 h (ng/g)
Report only the number, with the unit ng/g understood.

// query Supply recorded concentration at 1 h for `C[C@@H](c1ccccc1)[C@@H](C(=O)Nc1ccc(I)cc1F)N1C(=O)N[C@H](c2ccc(OC[C@H](O)CO)cc2)C1=O` here.
// result 1030

---

methodSummary: Drug level in human HT-29 cells expressing B-Raf V600E mutant xenografted nude mouse tumor at 50 mg/kg, po after 8 hrs
Type: ADME, organism-based, Neoplasm
Parameters: dose 50 mg/kg, route oral
appliedConditions: read-out: Drug uptake
quantityMeasured: concentration at 8 h (ng/g)
A number alone suffices; assume ng/g.

// query Please list concentration at 8 h recorded for the molecule `C[C@@H](c1ccccc1)[C@@H](C(=O)Nc1ccc(I)cc1F)N1C(=O)N[C@H](c2ccc(OC[C@H](O)CO)cc2)C1=O`
// result 906

---

methodSummary: Drug level in human HT-29 cells expressing B-Raf V600E mutant xenografted nude mouse tumor at 100 mg/kg, po after 2 hrs
Format: ADME, organism-based, Neoplasm
Set-up: dose 100 mg/kg, route oral
appliedConditions: read-out: Drug uptake
quantityMeasured: concentration at 2 h (ng/g)
Report the figure in ng/g without appending any unit label.

// query Please give the documented concentration at 2 h of `C[C@@H](c1ccccc1)[C@@H](C(=O)Nc1ccc(I)cc1F)N1C(=O)N[C@H](c2ccc(OC[C@H](O)CO)cc2)C1=O`
// result 2090

---

methodSummary: Plasma concentration in human LOX cells expressing B-Raf V600E mutant xenografted nude mouse at 100 mg/kg, po after 2 hrs
Type: ADME, organism-based
Parameters: dose 100 mg/kg, route oral
quantityMeasured: concentration at 2 h (µg/mL)
Give the number; µg/mL is assumed, so skip it.

// query Note down concentration at 2 h recorded for `C[C@@H](c1ccccc1)[C@@H](C(=O)Nc1ccc(I)cc1F)N1C(=O)N[C@H](c2ccc(OC[C@H](O)CO)cc2)C1=O`
// result 6.3

// data source = ChEMBL document CHEMBL1955803
